Source listed as paper PMC11822212.

- ASSAY REMARKS: qHTS cell viability (CellTiter-Glo, 72 h; primary screen), control cell line
- Type: cell-based, mouse
- MEASUREMENT PARAMETERS: mouse, NIH-3T3 cells (control cell line); 3T3, Log (M) -7.67631; read-out: Percent viability
READOUT KIND: viability at 72 h, 21.1 nM (%)
Response body: numeric value in %, unit text excluded.

Please give the documented viability at 72 h, 21.1 nM of COCCn1c2c([n+](Cc3cnccn3)c1C)C(=O)c1ccccc1C2=O [sepantronium bromide, reference compound] 104

* * *

- Tested on: MKL-1 cells (VP-MCC)
- ASSAY REMARKS: qHTS cell viability (CellTiter-Glo, 72 h; primary and follow-up small molecule screen)
- Format: cell-based, human
- MEASUREMENT PARAMETERS: MKL1, 72h, Log (M) -6.2907
READOUT KIND: Percent viability (%)
Response body: numeric value in %, unit text excluded.

Solved cases (2 shown):
> print(dat)
                                   molecule  experimental.value
1  Cc1cc(Nc2cc(N3CCN(C)CC3)nc(Sc3ccc(NC(=O)C4CC4)cc3)n2)[nH]n1 [Tozasertib, reference compound]                29.7
2  O=C(Nc1cccc(Cl)c1)Nc1ncc(CCNc2ncnc3ccsc23)s1 [SNS-314, reference compound]                42.7

Please give the documented Percent viability of CCS(=O)(=O)c1cccc(-c2cc(C(=O)NC3CCN(C)CC3)c(C)c3[nH]c4ncc(C)cc4c23)c1 [TAK-901, reference compound] 14.2

Please give the documented Percent viability of CCn1cc(-c2ccnc3[nH]c(-c4cccc(CN(C)C)c4)cc23)c(-c2ccc(NC(=O)N(C)C)cc2)n1 [GSK-1070916A, reference compound] 25.3

* * *

- Tested on: MCC26 cells (VN-MCC)
- ASSAY REMARKS: qHTS cell viability (CellTiter-Glo, 72 h; primary and follow-up small molecule screen)
- Type: cell-based, human
- MEASUREMENT PARAMETERS: MCC26, 72h, Log (M) -5.81358
READOUT KIND: Percent viability (%)
Response body: numeric value in %, unit text excluded.

Solved cases (3 shown):
> print(dat)
                                   compound          assay.target       readout.kind  experimental.value
1  O=C(Nc1cccc(Cl)c1)Nc1ncc(CCNc2ncnc3ccsc23)s1 [SNS-314, reference compound]  MCC26 cells (VN-MCC)  Percent viability                84.0
2  Cc1cc(Nc2cc(N3CCN(C)CC3)nc(Sc3ccc(NC(=O)C4CC4)cc3)n2)[nH]n1 [Tozasertib, reference compound]  MCC26 cells (VN-MCC)  Percent viability                59.4
3  CCS(=O)(=O)c1cccc(-c2cc(C(=O)NC3CCN(C)CC3)c(C)c3[nH]c4ncc(C)cc4c23)c1 [TAK-901, reference compound]  MCC26 cells (VN-MCC)  Percent viability                20.6

// next entry
Please give the documented Percent viability of CCn1cc(-c2ccnc3[nH]c(-c4cccc(CN(C)C)c4)cc23)c(-c2ccc(NC(=O)N(C)C)cc2)n1 [GSK-1070916A, reference compound] 9.7
